system: A549; assay: Growth inhibition of human A549 cells after 72 hrs by SRB assay; type: functional; details: A549, 72 h
Overview of recorded GI50 for various compounds
MEASUREMENT KIND: GI50

{"COMPOUND": "C=C1CC[C@@H]2[C@]3(C)CO[C@@H](c4ccc([N+](=O)[O-])cc4)O[C@@H]3CC[C@@]2(C)[C@@H]1/C=C/C1=CCOC1=O", "MEASUREMENT KIND": "GI50", "MEASURED VALUE": "30.8 µM"}
{"COMPOUND": "C=C1CC[C@@H]2[C@]3(C)CO[C@@H](c4ccc(N(C)C)cc4)O[C@@H]3CC[C@@]2(C)[C@@H]1/C=C/C1=CCOC1=O", "MEASUREMENT KIND": "GI50", "MEASURED VALUE": "33 µM"}
{"COMPOUND": "C=C1CC[C@@H]2[C@](C)(CO)[C@H](O)CC[C@@]2(C)[C@@H]1C/C=C1/C(=O)OC[C@H]1O [ANDROGRAPHOLIDE]", "MEASUREMENT KIND": "GI50", "MEASURED VALUE": "13.4 µM"}
{"COMPOUND": "C=C1CC[C@@H]2[C@]3(C)CO[C@@H](c4ccc(OC)cc4)O[C@@H]3CC[C@@]2(C)[C@@H]1/C=C/C1=CCOC1=O", "MEASUREMENT KIND": "GI50", "MEASURED VALUE": "26.9 µM"}
{"COMPOUND": "C=C1CC[C@@H]2[C@](C)(COC(=O)c3cnccn3)[C@H](OC(=O)c3cnccn3)CC[C@@]2(C)[C@@H]1/C=C/C1=CCOC1=O", "MEASUREMENT KIND": "GI50", "MEASURED VALUE": "4.87 µM"}
{"COMPOUND": "C=C1CC[C@@H]2[C@](C)(COC(=O)CCN(C)C)[C@H](OC(=O)CCN(C)C)CC[C@@]2(C)[C@@H]1/C=C/C1=CCOC1=O", "MEASUREMENT KIND": "GI50", "MEASURED VALUE": "32 µM"}

----------
test system: A549; test: Growth inhibition of human A549 cells after 72 hrs by SRB assay; assay type: functional; conditions: A549, 72 h

{"COMPOUND": "C=C1CC[C@@H]2[C@](C)(COC(=O)C3CCCN3C(=O)OC(C)(C)C)[C@H](O)CC[C@@]2(C)[C@@H]1/C=C/C1=CCOC1=O (stereo not given in full)", "RESULT UNIT": "µM", "VALUE QUALIFIER": "=", "GI50": 18.8}
{"COMPOUND": "C=C1CC[C@@H]2[C@](C)(COC(=O)C3CCN(C)CC3)[C@H](OC(=O)C3CCN(C)CC3)CC[C@@]2(C)[C@@H]1/C=C/C1=CCOC1=O", "RESULT UNIT": "µM", "VALUE QUALIFIER": "=", "GI50": 1.46}
{"COMPOUND": "C=C1CC[C@@H]2[C@](C)(COC(=O)CCCCC3CCSS3)[C@H](OC(=O)CCCCC3CCSS3)CC[C@@]2(C)[C@@H]1/C=C/C1=CCOC1=O (stereo not given in full)", "RESULT UNIT": "µM", "VALUE QUALIFIER": "=", "GI50": 10.2}
{"COMPOUND": "C=C1CC[C@@H]2[C@](C)(COC(=O)CCN3CCOCC3)[C@H](O)CC[C@@]2(C)[C@@H]1/C=C/C1=CCOC1=O", "RESULT UNIT": "µM", "VALUE QUALIFIER": ">", "GI50": 30}
{"COMPOUND": "C=C1CC[C@@H]2[C@](C)(COC(=O)c3cccnc3)[C@H](OC(=O)c3cccnc3)CC[C@@]2(C)[C@@H]1/C=C/C1=CCOC1=O", "RESULT UNIT": "µM", "VALUE QUALIFIER": ">", "GI50": 30}

----------
Overview of recorded GI50 for various molecules
tested on: KB; assay: Growth inhibition of human KB cells after 72 hrs by SRB assay; type: functional

{"MOLECULE": "C=C1CC[C@@H]2[C@](C)(COC(=O)C3CCCN3C(=O)OC(C)(C)C)[C@H](O)CC[C@@]2(C)[C@@H]1/C=C/C1=CCOC1=O (stereo partly specified)", "VALUE QUALIFIER": "=", "GI50 [µM]": 20.1}
{"MOLECULE": "C=C1CC[C@@H]2[C@](C)(COC(=O)CN(C)C)[C@H](OC(=O)CN(C)C)CC[C@@]2(C)[C@@H]1/C=C/C1=CCOC1=O", "VALUE QUALIFIER": ">", "GI50 [µM]": 30}
{"MOLECULE": "C=C1CC[C@@H]2[C@](C)(COC(=O)C3CCN(C)CC3)[C@H](OC(=O)C3CCN(C)CC3)CC[C@@]2(C)[C@@H]1/C=C/C1=CCOC1=O", "VALUE QUALIFIER": "=", "GI50 [µM]": 2.55}
{"MOLECULE": "C=C1CC[C@@H]2[C@](C)(COC(=O)CCCCC3CCSS3)[C@H](OC(=O)CCCCC3CCSS3)CC[C@@]2(C)[C@@H]1/C=C/C1=CCOC1=O (stereo partly specified)", "VALUE QUALIFIER": "=", "GI50 [µM]": 11.7}
{"MOLECULE": "C=C1CC[C@@H]2[C@]3(C)CO[C@@H](c4ccc([N+](=O)[O-])cc4)O[C@@H]3CC[C@@]2(C)[C@@H]1/C=C/C1=CCOC1=O", "VALUE QUALIFIER": ">", "GI50 [µM]": 30}
{"MOLECULE": "C=C1CC[C@@H]2[C@](C)(COC(=O)CCN3CCOCC3)[C@H](OC(=O)CCN3CCOCC3)CC[C@@]2(C)[C@@H]1/C=C/C1=CCOC1=O", "VALUE QUALIFIER": ">", "GI50 [µM]": 30}

----------
system: A549; assay: Growth inhibition of human A549 cells after 72 hrs by SRB assay; assay type: functional; conditions: A549, 72 h

{"COMPOUND": "C=C1CC[C@@H]2[C@](C)(COC(=O)CCN3CCOCC3)[C@H](OC(=O)CCN3CCOCC3)CC[C@@]2(C)[C@@H]1/C=C/C1=CCOC1=O", "GI50": "> 30 µM"}
{"COMPOUND": "C=C1CC[C@@H]2[C@](C)(COC(=O)CCCCC3CCSS3)[C@H](O)CC[C@@]2(C)[C@@H]1/C=C/C1=CCOC1=O (stereo partly drawn)", "GI50": "> 30 µM"}
{"COMPOUND": "C=C1CC[C@@H]2[C@](C)(COC(=O)CN(C)C)[C@H](OC(=O)CN(C)C)CC[C@@]2(C)[C@@H]1/C=C/C1=CCOC1=O", "GI50": "> 30 µM"}
